Data origin: the supplement of paper PMC6757056

B1: library; a variant is named by its letters at N, in order (parent)
chain: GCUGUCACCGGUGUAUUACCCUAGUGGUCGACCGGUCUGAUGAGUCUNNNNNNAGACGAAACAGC

# Variants of: B1
# Test Name: normalized RNA/DNA level with ligand (relative to sTRSVctl = 100) (log10 (% of sTRSVctl)); ligand: hypoxanthine (xanthine aptamer); higher = less ribozyme self-cleavage, higher mRNA level
# Condition Notes: ligand concentration (+) RNA-Seq: 5 mM, HEK293T, reporter: mCherry (pCS4076), ligand present: yes
Measurement Name: normalized RNA/DNA level with ligand (log10)
Numbers only.

Answer for every listed entry: what is its normalized RNA/DNA level with ligand (log10)? The entries follow.
1. AUGCGA
2. UCCUUC
3. CUCCUG
4. ACGGAA
5. UCCACA
6. CCCCAC

1.89
1.93
1.94
1.89
1.96
1.99

Answer for every listed entry: what is its normalized RNA/DNA level with ligand (log10)? The entries follow.
1. CGACAU
2. AUCGAC
3. UGAUGU
4. AUUCAC
5. CCAGCC
6. GGGUGU
7. UAUGAU
8. AACGCU

1: 1.89; 2: 1.95; 3: 1.91; 4: 1.95; 5: 2; 6: 1.93; 7: 1.91; 8: 1.94

Return value of normalized RNA/DNA level with ligand (log10) for input CUGAUG , no commentary.
1.94
